Biological target: EGFR del19/C797S (Homo sapiens, UniProt P00533, C797S/DEL746-750)
Sequence (P00533 with tags, fused parts or gaps DEL746-750/C797S): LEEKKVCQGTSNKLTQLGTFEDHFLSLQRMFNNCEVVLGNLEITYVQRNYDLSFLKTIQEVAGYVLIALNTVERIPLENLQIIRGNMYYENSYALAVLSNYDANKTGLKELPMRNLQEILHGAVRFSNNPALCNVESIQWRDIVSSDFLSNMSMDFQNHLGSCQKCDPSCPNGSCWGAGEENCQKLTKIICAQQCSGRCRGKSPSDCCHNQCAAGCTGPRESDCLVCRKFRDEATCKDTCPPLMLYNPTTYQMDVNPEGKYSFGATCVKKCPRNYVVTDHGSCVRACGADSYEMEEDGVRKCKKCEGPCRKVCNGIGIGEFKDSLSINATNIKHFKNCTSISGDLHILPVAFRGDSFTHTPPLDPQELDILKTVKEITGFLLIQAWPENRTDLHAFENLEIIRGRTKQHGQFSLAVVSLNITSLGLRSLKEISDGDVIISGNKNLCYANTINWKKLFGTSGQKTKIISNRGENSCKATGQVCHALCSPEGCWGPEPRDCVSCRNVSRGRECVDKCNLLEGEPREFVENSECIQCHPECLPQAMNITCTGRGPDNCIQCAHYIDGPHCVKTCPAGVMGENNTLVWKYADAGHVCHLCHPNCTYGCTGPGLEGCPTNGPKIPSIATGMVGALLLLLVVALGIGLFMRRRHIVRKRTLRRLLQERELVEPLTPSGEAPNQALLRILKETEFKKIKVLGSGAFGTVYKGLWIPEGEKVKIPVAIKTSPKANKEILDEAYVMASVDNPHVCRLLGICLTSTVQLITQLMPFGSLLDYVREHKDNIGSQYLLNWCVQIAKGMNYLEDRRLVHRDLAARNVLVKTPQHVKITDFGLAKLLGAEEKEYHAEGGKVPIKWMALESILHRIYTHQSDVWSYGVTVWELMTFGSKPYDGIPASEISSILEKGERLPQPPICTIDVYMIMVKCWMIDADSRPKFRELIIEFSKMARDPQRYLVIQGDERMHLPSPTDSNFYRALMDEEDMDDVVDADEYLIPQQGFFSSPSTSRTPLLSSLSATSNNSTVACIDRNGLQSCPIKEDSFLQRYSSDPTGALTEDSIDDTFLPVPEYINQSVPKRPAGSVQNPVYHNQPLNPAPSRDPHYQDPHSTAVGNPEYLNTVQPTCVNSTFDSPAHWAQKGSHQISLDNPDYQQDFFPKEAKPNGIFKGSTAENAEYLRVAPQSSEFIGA
Experiment: Biochemical EGFR kinase assay (Lance Ultra TR-FRET), double mutant del19/C797S
Settings: Km ATP; read-out: IC50 del19/C797S (nM) Km ATP
quantity name: IC50 (nM)

1. Cn1nc(-c2cnc(Nc3ccnc(-c4cnn(S(=O)(=O)C5CC5)c4)n3)cc2NN2CCC(O)CC2)cc1C(F)(F)F [Example 160]: 2
2. O=S(=O)(C1CC1)n1cc(-c2nccc(Nc3cc(NCC4(CO)COC4)c(-c4ccn(C(F)F)n4)cn3)n2)cn1 [Example 197]: 1.1
3. O=S(=O)(C1CC1)n1cc(-c2nccc(Nc3cc(N[C@H]4CC[C@@H](CO)CC4)c(-c4ccn(C(F)F)n4)cn3)n2)cn1 [Example 18]: 0.9
4. Cn1nc(-c2cnc(Nc3ccnc(-c4cnn(S(=O)(=O)C5CC5)c4)n3)cc2N[C@H]2CC[C@@H](CN3CCC3)CC2)cc1C(F)(F)F [Example 264]: 0.8
5. Cn1ccc(-c2cnc(Nc3ccnc(-c4cnn(S(=O)(=O)C5CC5)c4)n3)cc2NC[C@H]2CC[C@H](O)CC2)n1 [Example 47]: 0.5

[A] C[C@]1(O)CC[C@@H](Nc2cc(Nc3ccnc(-c4cnn(S(=O)(=O)C5CC5)c4)n3)ncc2-c2ccn(CC(F)F)n2)CC1 [Example 241]
[B] C[C@]1(O)CC[C@@H](Nc2cc(Nc3ccnc(-c4cnn(S(=O)(=O)C5CC5)c4)n3)ncc2-n2ccc(C(F)(F)F)n2)CC1 [Example 167]
IN: Identify the item whose IC50 is the smaller number: A or B State your choice using its label.
OUT: A
(A: 0.5 nM, B: 58.9 nM)
